Kindly find below IC50 information for UniProt P08709 taken from the literature.
# TARGET OF ASSAY: UniProt P08709
# Sequence (P08709 whole entry): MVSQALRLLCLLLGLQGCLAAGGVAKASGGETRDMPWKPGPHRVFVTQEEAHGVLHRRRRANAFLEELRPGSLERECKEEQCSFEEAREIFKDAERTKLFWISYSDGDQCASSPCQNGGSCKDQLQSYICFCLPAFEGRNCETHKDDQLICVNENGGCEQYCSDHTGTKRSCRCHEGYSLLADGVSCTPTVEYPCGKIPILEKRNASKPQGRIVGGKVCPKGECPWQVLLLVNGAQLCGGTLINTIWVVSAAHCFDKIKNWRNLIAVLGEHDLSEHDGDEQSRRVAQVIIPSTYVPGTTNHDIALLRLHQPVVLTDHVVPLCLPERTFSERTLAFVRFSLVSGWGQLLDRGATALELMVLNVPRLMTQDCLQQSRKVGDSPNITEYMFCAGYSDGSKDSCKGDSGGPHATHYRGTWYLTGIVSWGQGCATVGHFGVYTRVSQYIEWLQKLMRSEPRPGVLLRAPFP
A number alone suffices; assume µM.

Req: Give the reported IC50 for this compound. N=C(N)NCCC[C@H](NC(=O)[C@H](Cc1cccc(-c2ccccc2)c1)NC(=O)[C@@H](Cc1ccccc1)NS(=O)(=O)Cc1ccccc1)C(=O)c1nccs1
Resp: 1.83

Req: Give a short answer stating reported IC50 for CN(C)c1ccc(-c2ccc(C(=O)NCC(C)(C)C)cc2C(=O)O)c(C(=O)Nc2ccc3c(N)nccc3c2)n1 .
Resp: 0.101

Req: Respond only with IC50 recorded for C=C(C)C[C@]1(N)C[C@H](OC)[C@@H]2[C@H](CC)CC(C(=O)NCc3ccc(C(=N)N)cc3)N2C1=O (some centres not stated)
Resp: 1.6

Req: State its IC50: COc1cccc(C(=O)O)c1OCC(O)c1cc(-c2ccc3c(c2)[C@H](N)CO3)cc(C(C)C)c1 (mixture of isomers)
Resp: 12.5

Req: Give me measured IC50, please, for this compound: NC(N)=NCCC[C@H](NC(=O)[C@H](Cc1cccnc1)NC(=O)[C@@H](Cc1ccccc1)NS(=O)(=O)Cc1ccccc1)C(=O)c1nccs1
Resp: 0.2
